tested.system: Cav1.3 L-type Ca channels (Rattus norvegicus, UniProt P27732)
Construct: expressed in transfected cells; host or cells: HEK293
assay.explanation: FLIPR Fluo-8 calcium assay, Cav1.3 channel inhibition in HEK293 cells
Assay type: cell-based
assay.context: second library; ratio of IC50 Cav1.2 to Cav1.3
outcome.measure: Selectivity

# Selectivity of `O=C1CC(=O)N(C2CCCCC2)C(=O)N1CCCc1ccccc1` = 4.9

# Selectivity of O=C1CC(=O)N(C2CCc3ccccc32)C(=O)N1C1CCCCC1 (stereo not shown) = 1.2

# Selectivity of `O=C1CC(=O)N(C2CCCCC2)C(=O)N1CCc1cccc(Br)c1` = 34.0

# Selectivity of `O=C1CC(=O)N(C2CCCCC2)C(=O)N1CCc1cccc(C(F)(F)F)c1` = 20.3

# Selectivity of `Cc1ccc(CCN2C(=O)CC(=O)N(C3CCCCC3)C2=O)cc1` = 3.4

# Selectivity of `Cc1cccc(CCN2C(=O)CC(=O)N(C3CCCCC3)C2=O)c1` = 35.4

# Selectivity of `N#Cc1ccc(CCN2C(=O)CC(=O)N(C3CCCCC3)C2=O)cc1` = 1.1

# Selectivity of `O=C1CC(=O)N(C2CCCCC2)C(=O)N1CCc1ccc(Br)cc1` = 26.4

# Selectivity of `N#Cc1cccc(CCN2C(=O)CC(=O)N(C3CCCCC3)C2=O)c1` = 3.5

# Selectivity of `O=C(O)c1cccc(CCN2C(=O)CC(=O)N(C3CCCCC3)C2=O)c1` = 0.9

# Selectivity of `O=C1CC(=O)N(C2CCCCC2)C(=O)N1CCc1ccccc1Cl` = 7.7

# Selectivity of `O=C1CC(=O)N(C2CCCCC2)C(=O)N1Cc1cccc([N+](=O)[O-])c1` = 1.2

# Selectivity of `O=C1CC(=O)N(C2CCCCC2)C(=O)N1CCOc1ccccc1` = 1.2

====

tested.system: Cav1.2 L-type Ca channels (Oryctolagus cuniculus)
Sequence (P15381 whole entry): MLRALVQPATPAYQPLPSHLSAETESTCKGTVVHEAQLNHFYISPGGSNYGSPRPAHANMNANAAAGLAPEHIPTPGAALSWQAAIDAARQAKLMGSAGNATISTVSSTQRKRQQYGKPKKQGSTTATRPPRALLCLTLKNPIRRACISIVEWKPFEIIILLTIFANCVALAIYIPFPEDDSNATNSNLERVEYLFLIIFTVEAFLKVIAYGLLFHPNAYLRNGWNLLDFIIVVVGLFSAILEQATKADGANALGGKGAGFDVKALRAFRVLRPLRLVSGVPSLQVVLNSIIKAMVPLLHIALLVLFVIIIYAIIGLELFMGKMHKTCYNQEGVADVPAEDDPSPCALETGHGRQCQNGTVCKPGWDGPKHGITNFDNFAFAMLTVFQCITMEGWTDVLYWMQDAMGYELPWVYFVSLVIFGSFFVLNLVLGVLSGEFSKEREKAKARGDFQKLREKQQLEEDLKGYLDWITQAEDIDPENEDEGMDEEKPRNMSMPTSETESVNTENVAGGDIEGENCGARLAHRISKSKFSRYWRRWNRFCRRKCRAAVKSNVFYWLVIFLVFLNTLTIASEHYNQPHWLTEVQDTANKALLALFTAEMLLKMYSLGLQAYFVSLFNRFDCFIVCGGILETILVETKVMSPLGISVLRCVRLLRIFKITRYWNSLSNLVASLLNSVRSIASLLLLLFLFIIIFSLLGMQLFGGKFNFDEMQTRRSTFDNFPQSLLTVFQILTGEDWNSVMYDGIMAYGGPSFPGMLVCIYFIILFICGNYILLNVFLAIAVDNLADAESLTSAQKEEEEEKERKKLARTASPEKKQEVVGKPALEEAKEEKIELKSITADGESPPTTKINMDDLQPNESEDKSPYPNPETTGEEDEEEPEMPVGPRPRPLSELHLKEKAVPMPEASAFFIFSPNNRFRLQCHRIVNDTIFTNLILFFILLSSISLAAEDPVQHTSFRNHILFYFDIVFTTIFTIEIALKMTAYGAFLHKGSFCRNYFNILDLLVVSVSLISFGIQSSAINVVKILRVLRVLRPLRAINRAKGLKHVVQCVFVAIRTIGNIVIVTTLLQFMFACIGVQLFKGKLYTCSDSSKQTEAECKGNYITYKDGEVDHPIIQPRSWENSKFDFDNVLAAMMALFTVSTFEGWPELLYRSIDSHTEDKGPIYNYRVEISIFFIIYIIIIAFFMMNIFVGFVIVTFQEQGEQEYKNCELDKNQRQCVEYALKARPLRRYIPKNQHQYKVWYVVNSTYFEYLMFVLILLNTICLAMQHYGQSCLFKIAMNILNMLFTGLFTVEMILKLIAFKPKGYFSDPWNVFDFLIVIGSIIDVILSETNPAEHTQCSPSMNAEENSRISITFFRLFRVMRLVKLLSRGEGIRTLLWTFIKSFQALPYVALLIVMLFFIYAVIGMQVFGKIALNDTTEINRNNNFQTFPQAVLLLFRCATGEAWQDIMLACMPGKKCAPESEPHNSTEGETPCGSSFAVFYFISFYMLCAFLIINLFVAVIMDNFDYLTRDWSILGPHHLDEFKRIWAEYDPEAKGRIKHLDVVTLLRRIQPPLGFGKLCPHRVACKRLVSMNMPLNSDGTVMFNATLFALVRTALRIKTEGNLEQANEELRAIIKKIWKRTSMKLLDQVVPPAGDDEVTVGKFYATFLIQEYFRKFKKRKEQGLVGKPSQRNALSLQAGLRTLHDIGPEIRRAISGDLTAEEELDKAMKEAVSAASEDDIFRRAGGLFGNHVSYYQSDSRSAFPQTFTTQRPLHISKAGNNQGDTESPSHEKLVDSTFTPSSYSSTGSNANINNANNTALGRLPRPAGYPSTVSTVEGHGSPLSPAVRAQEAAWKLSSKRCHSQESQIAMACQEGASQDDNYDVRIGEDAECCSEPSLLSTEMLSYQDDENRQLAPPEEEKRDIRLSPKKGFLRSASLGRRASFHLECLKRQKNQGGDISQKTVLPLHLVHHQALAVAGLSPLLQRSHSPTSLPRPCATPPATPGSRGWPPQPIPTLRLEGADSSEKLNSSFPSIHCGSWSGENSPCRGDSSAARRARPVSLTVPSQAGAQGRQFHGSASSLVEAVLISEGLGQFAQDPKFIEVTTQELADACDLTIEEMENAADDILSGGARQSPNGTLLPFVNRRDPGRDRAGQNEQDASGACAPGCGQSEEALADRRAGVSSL
Sequence (P54284 whole entry partner): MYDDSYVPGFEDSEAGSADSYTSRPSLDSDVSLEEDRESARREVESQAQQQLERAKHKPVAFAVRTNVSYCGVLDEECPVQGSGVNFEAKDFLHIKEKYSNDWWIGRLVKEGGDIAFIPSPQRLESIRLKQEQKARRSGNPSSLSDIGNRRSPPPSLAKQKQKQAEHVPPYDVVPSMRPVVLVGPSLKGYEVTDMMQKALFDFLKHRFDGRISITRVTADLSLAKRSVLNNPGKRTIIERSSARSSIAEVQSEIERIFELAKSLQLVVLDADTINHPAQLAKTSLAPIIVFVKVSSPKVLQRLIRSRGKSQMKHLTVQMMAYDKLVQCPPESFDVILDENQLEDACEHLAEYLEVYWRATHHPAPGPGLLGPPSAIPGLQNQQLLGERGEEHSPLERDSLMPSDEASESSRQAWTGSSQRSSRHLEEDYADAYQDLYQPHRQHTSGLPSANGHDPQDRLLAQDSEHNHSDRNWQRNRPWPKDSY
Sequence (P54289 25-956 partner limits assumed): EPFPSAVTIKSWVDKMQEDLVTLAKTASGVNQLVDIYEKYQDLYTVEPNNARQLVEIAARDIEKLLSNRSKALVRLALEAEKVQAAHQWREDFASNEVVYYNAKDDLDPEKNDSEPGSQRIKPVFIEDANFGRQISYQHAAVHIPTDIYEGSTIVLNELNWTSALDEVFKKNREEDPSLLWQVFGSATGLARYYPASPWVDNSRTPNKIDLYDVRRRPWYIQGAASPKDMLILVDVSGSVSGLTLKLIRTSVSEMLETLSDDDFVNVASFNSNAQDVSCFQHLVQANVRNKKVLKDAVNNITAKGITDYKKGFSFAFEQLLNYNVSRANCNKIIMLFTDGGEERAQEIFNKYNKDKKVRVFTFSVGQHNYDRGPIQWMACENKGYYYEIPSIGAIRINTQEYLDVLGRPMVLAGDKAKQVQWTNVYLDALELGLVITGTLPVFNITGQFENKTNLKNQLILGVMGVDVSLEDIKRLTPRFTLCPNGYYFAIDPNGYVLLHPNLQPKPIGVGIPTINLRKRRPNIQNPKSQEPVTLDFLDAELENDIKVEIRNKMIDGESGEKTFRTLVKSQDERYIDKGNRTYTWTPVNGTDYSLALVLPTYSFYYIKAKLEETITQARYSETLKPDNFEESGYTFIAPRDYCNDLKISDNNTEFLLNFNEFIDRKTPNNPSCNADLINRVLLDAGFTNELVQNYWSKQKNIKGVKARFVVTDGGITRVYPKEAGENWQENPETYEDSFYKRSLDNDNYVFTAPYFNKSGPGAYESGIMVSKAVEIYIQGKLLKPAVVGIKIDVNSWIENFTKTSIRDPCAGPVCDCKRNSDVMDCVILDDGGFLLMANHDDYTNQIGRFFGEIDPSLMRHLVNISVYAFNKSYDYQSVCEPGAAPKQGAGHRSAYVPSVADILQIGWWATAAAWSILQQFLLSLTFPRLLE
Sequence (P54289 957-1103 partner limits assumed): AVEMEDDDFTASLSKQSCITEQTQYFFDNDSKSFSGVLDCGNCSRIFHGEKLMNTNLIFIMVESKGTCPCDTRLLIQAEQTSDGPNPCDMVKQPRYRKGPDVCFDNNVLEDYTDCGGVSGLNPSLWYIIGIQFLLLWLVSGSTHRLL
assay.explanation: FLIPR Fluo-8 calcium assay, Cav1.2 channel inhibition in HEK293 cells
assay.context: IC50 (μM) Cav1.2, second library; FLIPR, HEK293; value (±SD)
For each record, check the reported IC50: if it is below 30 µM write Condition met, else write Condition not met.

Ask | Lab note: IC50 threshold 30 µM. Does this compound come in strictly under it? `Cc1ccc(CCN2C(=O)CC(=O)N(C3CCCCC3)C2=O)cc1`
Reply | Condition met

Ask | Lab note: IC50 threshold 30 µM. Does this compound come in strictly under it? `O=C1CC(=O)N(C2CCCCC2)C(=O)N1CCc1ccc(Br)cc1`
Reply | Condition met

Ask | Lab note: IC50 threshold 30 µM. Does this compound come in strictly under it? `O=C1CC(=O)N(C2CCCCC2)C(=O)N1CCc1ccccc1Cl`
Reply | Condition not met

Ask | Lab note: IC50 threshold 30 µM. Does this compound come in strictly under it? `O=C1CC(=O)N(C2CCCCC2)C(=O)N1CCc1cccc(C(F)(F)F)c1`
Reply | Condition met

Ask | Lab note: IC50 threshold 30 µM. Does this compound come in strictly under it? `O=C1CC(=O)N(C2CCCCC2)C(=O)N1CCOc1ccccc1`
Reply | Condition met

Ask | Lab note: IC50 threshold 30 µM. Does this compound come in strictly under it? `N#Cc1ccc(CCN2C(=O)CC(=O)N(C3CCCCC3)C2=O)cc1`
Reply | Condition not met

Ask | Lab note: IC50 threshold 30 µM. Does this compound come in strictly under it? `O=C1CC(=O)N(C2CCCCC2)C(=O)N1Cc1ccc(Cl)cc1`
Reply | Condition not met

Ask | Lab note: IC50 threshold 30 µM. Does this compound come in strictly under it? `O=C1CC(=O)N(C2CCCCC2)C(=O)N1CCc1cccc(Br)c1`
Reply | Condition not met

Ask | Lab note: IC50 threshold 30 µM. Does this compound come in strictly under it? `COc1ccc(CN2C(=O)CC(=O)N(C3CCCCC3)C2=O)cc1`
Reply | Condition not met

The measurements presented in this section are drawn from patent US20210186970A1.
